Assay: Potency to inhibit African Sierra Leone(D-6) clone relative to artemisinin.
Assay type: functional
Classes by Relative potency: group 1 (below 0.4), group 2 (0.4 to below 1), group 3 (1 or more)

| chem-smiles | label |
| --- | --- |
| CCN(CC)C(=O)c1ccc(C(=O)OCC[C@@H]2CCC[C@@H]3CC[C@]4(C)OO[C@]32[C@@H](OC)O4)cc1 | group 3 |
| CO[C@H]1O[C@]2(C)CC[C@H]3CCC[C@@H](CCOC(=O)c4ccccc4)[C@]31OO2 | group 1 |
| COC(=O)c1ccc(C(=O)OCC[C@@H]2CCC[C@@H]3CC[C@]4(C)OO[C@]32[C@@H](OC)O4)cc1 | group 3 |
| COC(=O)c1ccccc1S(=O)(=O)OCC[C@@H]1CCC[C@@H]2CC[C@]3(C)OO[C@]21[C@@H](OC)O3 | group 1 |
| CO[C@H]1O[C@]2(C)CC[C@H]3CCC[C@@H](CCOC(=O)CNC(=O)OC(C)(C)C)[C@]31OO2 | group 3 |
| CO[C@H]1O[C@]2(C)CC[C@H]3CCC[C@@H](CCOCc4c(C)noc4C)[C@]31OO2 | group 2 |
| CO[C@H]1O[C@]2(C)CC[C@H]3CCC[C@@H](CCOC(=O)N(c4ccccc4)c4ccccc4)[C@]31OO2 | group 3 |
| CO[C@H]1O[C@]2(C)CC[C@H]3CCC[C@@H](CCOC(=O)c4ccc(C(=O)OCCN(C)C)cc4)[C@]31OO2 | group 1 |
| CO[C@H]1O[C@]2(C)CC[C@H]3CCC[C@@H](CCOS(=O)(=O)c4cccc5c(N(C)C)cccc45)[C@]31OO2 | group 1 |
| CO[C@H]1O[C@]2(C)CC[C@H]3CCC[C@@H](CCOS(=O)(=O)c4ccc(C)cc4)[C@]31OO2 | group 2 |
| CCOP(=O)(OCC)OCC[C@@H]1CCC[C@@H]2CC[C@]3(C)OO[C@]21[C@@H](OC)O3 | group 3 |
| CO[C@H]1O[C@]2(C)CC[C@H]3CCC[C@@H](CCOCc4ccccc4)[C@]31OO2 | group 2 |
| CO[C@H]1O[C@]2(C)CC[C@H]3CCC[C@@H](CCOC(=O)N(C)C)[C@]31OO2 | group 3 |

* * *

Assay: Potency to inhibit Indochina(W-2) clone relative to artemisinin.
Type: functional

| chem-smiles | Relative potency |
| --- | --- |
| CCN(CC)C(=O)OCC[C@@H]1CCC[C@@H]2CC[C@]3(C)OO[C@]21[C@@H](OC)O3 | > 3.5 |
| CO[C@H]1O[C@]2(C)CC[C@H]3CCC[C@@H](CCOS(=O)(=O)c4ccc(C)cc4)[C@]31OO2 | 0.7 |
| CO[C@H]1O[C@]2(C)CC[C@H]3CCC[C@@H](CCOC(=O)CNC(=O)OC(C)(C)C)[C@]31OO2 | 0.6 |
| CO[C@H]1O[C@]2(C)CC[C@H]3CCC[C@@H](CCOC(=O)c4ccccc4)[C@]31OO2 | 0.2 |
| C[C@@H]1CC[C@H]2[C@@H](C)C(=O)O[C@@H]3O[C@@]4(C)CC[C@@H]1[C@]32OO4 | 1 |
| COC(=O)c1ccccc1S(=O)(=O)OCC[C@@H]1CCC[C@@H]2CC[C@]3(C)OO[C@]21[C@@H](OC)O3 | 0.1 |
| C=CCOCC[C@@H]1CCC[C@@H]2CC[C@]3(C)OO[C@]21[C@@H](OC)O3 | 2.3 |
| COC(=O)c1ccc(C(=O)OCC[C@@H]2CCC[C@@H]3CC[C@]4(C)OO[C@]32[C@@H](OC)O4)cc1 | > 1.2 |
| CCN(CC)C(=O)c1ccc(C(=O)OCC[C@@H]2CCC[C@@H]3CC[C@]4(C)OO[C@]32[C@@H](OC)O4)cc1 | > 1 |
| COCC[C@@H]1CCC[C@@H]2CC[C@]3(C)OO[C@]21[C@@H](OC)O3 | 0.4 |
| CO[C@H]1O[C@]2(C)CC[C@H]3CCC[C@@H](CCOS(=O)(=O)c4cccc5c(N(C)C)cccc45)[C@]31OO2 | 1.2 |
| CO[C@H]1O[C@]2(C)CC[C@H]3CCC[C@@H](CCOC(=O)c4ccc(C(=O)OCCN(C)C)cc4)[C@]31OO2 | 0.4 |
| CO[C@H]1O[C@]2(C)CC[C@H]3CCC[C@@H](CCOCc4ccccc4)[C@]31OO2 | 3.5 |
| CCOP(=O)(OCC)OCC[C@@H]1CCC[C@@H]2CC[C@]3(C)OO[C@]21[C@@H](OC)O3 | > 1.6 |
| CO[C@H]1O[C@]2(C)CC[C@H]3CCC[C@@H](CCOC(=O)c4ccc(C(=O)O)cc4)[C@]31OO2 | 0.1 |
